# System: 186277-243-T-J2-PDC complex spheroids, viability;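 also: spheroids exposed to compounds for 7 days before viability read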
# MEASUREMENT PROTOCOL: Anticancer human tumor 186277-243-T-J2-PDC patient-derived colon adenocarcinoma cell line growth inhibition [RAS]
# CONDITION DESCRIPTION: second compound 1 µM; first compound 3.16 µM; active compounds read low
Hi there, I'd appreciate the recorded viability, T/C for every entry that follows.
Your answer is read as %, so omit the unit and give the number.

Any idea what viability, T/C was measured for NC1c2ccccc2OC12CCN(c1cnc3c(N4CCCc5ncccc54)n[nH]c3n1)CC2 (centres undefined) + C=CC(=O)N1CCN(c2nc(OCC3CCCN3C)nc3c(F)c(-c4nc(N)cc(C)c4C(F)(F)F)c(Cl)cc23)C(C)C1 ?
78.5

Any idea what viability, T/C was measured for CC(C)NCC(C(=O)N1CCN(c2ncnc3c2C(C)CC3O)CC1)c1ccc(Cl)cc1 (centres undefined) + C=CC(=O)N1CCN(c2nc(OCC3CCCN3C)nc3c(F)c(-c4nc(N)cc(C)c4C(F)(F)F)c(Cl)cc23)C(C)C1 ?
38.9

Any idea what viability, T/C was measured for CC1(O)CCCC1n1c(=O)c(C(F)F)cc2cnc(NC3CCN(S(C)(=O)=O)CC3)nc21 (centres undefined) + C#Cc1c(F)ccc2cc(O)cc(-c3ncc4c(N5CC6CCC(C5)N6)nc(OCC56CCCN5CC(F)C6)nc4c3F)c12 ?
10.8

Any idea what viability, T/C was measured for CCC(CC)c1cc(NC2CCC(N)C2)n2nccc2n1 (centres undefined) + C#Cc1c(F)ccc2cc(O)cc(-c3ncc4c(N5CC6CCC(C5)N6)nc(OCC56CCCN5CC(F)C6)nc4c3F)c12 ?
2.86
